B1: library; a variant is named by its letters at N, in order (parent)
chain: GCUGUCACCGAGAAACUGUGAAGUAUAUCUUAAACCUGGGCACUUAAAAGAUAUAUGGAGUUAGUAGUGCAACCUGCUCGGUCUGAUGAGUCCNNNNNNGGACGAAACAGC

- Variants of: B1
- test_protocol: normalized RNA/DNA level without ligand (relative to sTRSVctl = 100) (log10 (% of sTRSVctl)); HEK293T; ligand: cyclic di-GMP (c-di-GMP-II aptamer); higher = less ribozyme self-cleavage, higher mRNA level
- details: reporter: mCherry (pCS4076), ligand present: no
# normalized RNA/DNA level without ligand (log10) per record follows
measurement_kind: normalized RNA/DNA level without ligand (log10)

In [3]: df
Out[3]:
   mutations  endpoint_result
0     CAAUCU             1.54
1     ACUACA             1.55
2     UCUAAU              1.6
3     CACCCA             1.59
4     GAAUUC              1.8
5     UUUAAC              1.7
